ASSAYED TARGET: S-nitrosoglutathione reductase (GSNOR) (Homo sapiens, UniProt P11766)
Construct: made in house; host or cells: E. coli
Sequence (P11766 whole entry): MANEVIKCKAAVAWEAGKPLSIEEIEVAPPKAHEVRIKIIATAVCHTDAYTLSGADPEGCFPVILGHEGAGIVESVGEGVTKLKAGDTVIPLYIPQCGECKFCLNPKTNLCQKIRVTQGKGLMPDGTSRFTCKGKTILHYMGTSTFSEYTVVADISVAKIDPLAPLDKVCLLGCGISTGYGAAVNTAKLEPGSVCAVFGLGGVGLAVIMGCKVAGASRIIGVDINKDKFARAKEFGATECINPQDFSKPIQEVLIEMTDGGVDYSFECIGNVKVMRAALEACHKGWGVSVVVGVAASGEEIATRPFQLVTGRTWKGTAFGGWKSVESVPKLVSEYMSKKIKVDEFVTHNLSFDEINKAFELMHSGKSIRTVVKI
PROCEDURE TEXT: GSNOR assay (inhibition of GSNOR activity, NADH absorbance at 340 nm)
Assay type: biochemical
CONDITION CONTEXT: GSNOR inhibitor activity, Tables 1-6; read-out: IC50 range
pIC50: −log10 of the molar value.
Known pIC50 of a selection of compounds
OBSERVED PROPERTY: pIC50

INSERT INTO results (compound, assayed_target, val) VALUES
  ('COc1cc(C(=O)O)ccc1-c1cc(F)c2cc(O)ccc2n1 [Compound I-48]', 'S-nitrosoglutathione reductase (GSNOR) (Homo sapiens, UniProt P11766)', '> 7.00'),
  ('O=C(NO)c1ccc(-c2c(C(F)(F)F)oc3cc(O)ccc3c2=O)cc1 [IV-37]', 'S-nitrosoglutathione reductase (GSNOR) (Homo sapiens, UniProt P11766)', '6.00 to 7.00'),
  ('O=C(O)c1csc(-c2c(C(F)(F)F)oc3cc(O)ccc3c2=O)c1 [IV-35]', 'S-nitrosoglutathione reductase (GSNOR) (Homo sapiens, UniProt P11766)', '6.00 to 7.00'),
  ('O=C(O)c1ccc(-c2ccc3cc(O)ccc3n2)c(F)c1 [Compound I-13]', 'S-nitrosoglutathione reductase (GSNOR) (Homo sapiens, UniProt P11766)', '> 7.00'),
  ('N#Cc1c(-c2ccc(C(=O)O)cc2F)ccc2cc(O)ccc12 [III-29]', 'S-nitrosoglutathione reductase (GSNOR) (Homo sapiens, UniProt P11766)', '> 7.00');

From: patent US20140094465A1
